Biological target: T1, recombinant human IGF-1R (rhIGF-1R) (human, UniProt P08069 31-935)
T1 construct: extracellular domain; Coated on plates in the TRF assay and europium-labelled (LANCE) in the TR-FRET assays; also called rhIGE-1R; Eu3+-rhIGF-1R
Assay: heterogeneous TRF (DELFIA) competition with b-rhIGF-1 for plate-coated rhIGF-1R
Positions of bridges follow the written chain, without caps; N, C: chain ends. No end group written: not given here.
assayMetric: IC50 (µM)
Numbers only, in µM.

Observe how each entry below is paired with its result.
binder	unitsLabel	IC50
WLDQERAWLWCEISGRGCLS (disulfide 11-18 (inferred), Recombinant form) [recombinant peptide surrogate D815 (rD815)]	µM	4.08
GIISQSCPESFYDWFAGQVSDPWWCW (Recombinant form) [recombinant peptide surrogate G33 (rG33)]	µM	1.45

Next item in the queue.
INPUT: Entry WLDQERAWLWCEISGRGCLSGGSGGSGGSGGSGSLDESFYDWFERQLGKK (not fully specified (bridges); cysteine pairing not given here, Site 2-Site 1 dimer peptide, recombinant; also called D815-RP9 (12 aa linker); D815-12-RP9) [D815-12aa-RP9] : reported IC50 = ?
OUTPUT: 0.00322
